test.name: Cmin in B6 mouse at 40 mg/kg, po measured after 7 hrs by UV-HPLC analysis
Assay type: ADME, organism-based
condition.info: in vivo, read-out: Cmin
Readings of concentration at 7 h for the listed molecules
Supply the numeric figure in ng/mL, leaving out any unit text.

Provide concentration at 7 h value for the following molecule: Cc1cc(C(=O)Nc2cc(Nc3ccc4c(/C=C/c5ccccn5)n[nH]c4c3)ccc2F)n(C)n1.Cl
4140

Provide measured concentration at 7 h value, entry: CCn1nc(C)cc1C(=O)Nc1cccc(C(=O)c2ccc3c(/C=C/c4ccccn4)n[nH]c3c2)c1.Cl
1880

* * *

test.name: Terminal half life in B6 mouse at 50 mg/kg, po by UV-HPLC analysis
Assay type: ADME, organism-based
condition.info: B6, mouse, in vivo, read-out: beta t1/2 (converted)
value.type: log10(half-life) (log10 of the value in h)
Annotation: log10 of half-life, h basis.

• O=C(Nc1cccc(C(=O)c2ccc3c(-c4nc5ccccc5[nH]4)n[nH]c3c2)c1)c1ccccc1 = 0.48
• C[C@@H]1C[C@H]1C(=O)Nc1cccc(C(=O)c2ccc3c(/C=C/c4ccccn4)n[nH]c3c2)c1 (racemic) = -0.15
• O=C(NCc1ccccc1F)c1ccccc1Sc1ccc2c(/C=C/c3ccccn3)n[nH]c2c1 = 0.56

// moving on: another record for log10(half-life)
Note log10(half-life) for the molecule shown: C/C=C/C(=O)Nc1cccc(C(=O)c2ccc3c(/C=C/c4ccccn4)n[nH]c3c2)c1
0.41
